# Test system: LOX IMVI
# ASSAY_NOTES: NCI tumour cell line growth inhibition, 48 h
Calls of active or inactive are those of the source. No stated cut-off is given here; in the data, active = GI50 up to about 1.1 µM and inactive = higher.
Entries annotated with measured GI50

Some compounds with known GI50 results, for comparison:
| COMPOUND | READING |
| --- | --- |
| C(/C=N/c1ccccc1)=C(/Nc1ccccc1)C12CC3CC(CC(C3)C1)C2 | 12.9 µM (inactive) |
| Cc1cc(NC2=CC(=O)C(=O)c3ccccc32)no1 | 1.84 µM (inactive) |
| c1ccc2c(c1)SC1Sc3ccccc3[S+]21 (centres undefined) | 18.5 µM (inactive) |
| COCCN(CCOC)C(=O)COc1c2cc(C(C)(C)C)cc1Cc1cc(C(C)(C)C)cc(c1OCC(=O)N(CCOC)CCOC)Cc1cc(C(C)(C)C)cc(c1OCC(=O)N(CCOC)CCOC)Cc1cc(C(C)(C)C)cc(c1OCC(=O)N(CCOC)CCOC)Cc1cc(C(C)(C)C)cc(c1OCC(=O)N(CCOC)CCOC)C2 | 1.73 µM (inactive) |
| C=CCOc1ccccc1C1(O)c2ccccc2C2=NCCCN21 (centres undefined) | 38.1 µM (inactive) |

Ask: What GI50 appears in the records for this compound with LOX IMVI? COC(=O)C1=C(C)N(NC(=O)c2cccc(Cl)c2)C(C)(O)C12CCOC2=O (centres undefined)
Reply: > 100 µM (inactive)

Ask: What GI50 appears in the records for this compound with LOX IMVI? Cc1c2cc[n+](C)cc2c(C)c2c1[nH]c1ccc(O)cc12 [ELLIPTINIUM ACETATE]
Reply: 31 µM (inactive)

Ask: What GI50 appears in the records for this compound with LOX IMVI? `CN(C)[C@@H]1C(O)=C(C(=O)NCNCCCC(=O)O)C(=O)[C@@]2(O)C(O)=C3C(=O)c4c(O)cccc4[C@@](C)(O)[C@H]3C[C@@H]12`
Reply: > 100 µM (inactive)

Ask: What GI50 appears in the records for this compound with LOX IMVI? O=C(O)C(O)C(O)C(O)C(O)c1nc2ccccc2s1 (centres undefined)
Reply: 16.9 µM (inactive)

###

Entries annotated with measured GI50
# Test system: CAKI-1
# ASSAY_NOTES: NCI tumour cell line growth inhibition, 48 h
Calls of active or inactive are those of the source. No stated cut-off is given here; in the data, active = GI50 up to about 1.1 µM and inactive = higher.

| COMPOUND | ASSAYED_TARGET | GI50 |
| --- | --- | --- |
| CC12CCC(CC(=O)/C1=C(/Br)I)C2(C)C (centres undefined) | CAKI-1 | 16.9 µM (inactive) |

Ask: Look up GI50 for this compound: `CCOC(=O)[C@H](CCCNC(=O)OC(C)(C)C)NCc1ccc(OC)c(OC)c1`
Reply: > 100 µM (inactive)

###

Entries annotated with measured GI50
# Test system: HOP-92
# ASSAY_NOTES: NCI tumour cell line growth inhibition, 48 h
The source made the active and inactive calls. Cut-off read from the data, not from the text of the source: active = GI50 up to about 1.1 µM and inactive = higher.

Some compounds with known GI50 results, for comparison:
| COMPOUND | ASSAYED_TARGET | GI50 |
| --- | --- | --- |
| CC(C)(C)c1ccc(OC2CCO2)cc1 (stereo not given) | HOP-92 | 35.4 µM (inactive) |
| C[C@@H](Cl)[C@H]1CCCN(Cc2ccc(Br)cc2)C1 | HOP-92 | > 12.5 µM (inactive) |
| CCCCC1=C(Br)C(=C(Br)Br)OC1=O | HOP-92 | 11 µM (inactive) |

Ask: Look up GI50 for this compound: COc1ccccc1/C=C1\CCC(CN(C)C)C1=O (stereo not given)
Reply: 2.99 µM (inactive)

Ask: Look up GI50 for this compound: `O=C(NCCC1([N+](=O)[O-])CCN(C(=O)c2ccccc2)CC1)c1ccccc1`
Reply: < 0.01 µM (active)

Ask: Look up GI50 for this compound: `Cn1ccc(C(=O)NCCN(CCNC(=O)c2ccn(C)c(=O)c2O)CCNC(=O)c2ccn(C)c(=O)c2O)c(O)c1=O`
Reply: > 100 µM (inactive)

Ask: Look up GI50 for this compound: `C[C@]12CC[C@@H]3c4cc(OCC(F)(F)F)c(O)cc4C(=O)C[C@H]3[C@@H]1CC[C@@H]2O`
Reply: 20.7 µM (inactive)

Ask: Look up GI50 for this compound: `CCOc1ccc2nc3nc(O)nc(C)c3c(NC(C)(CO)CO)c2c1`
Reply: > 100 µM (inactive)

Ask: Look up GI50 for this compound: `CCCn1c(C23CC4CC(CC(C4)C2)C3)nc2ccc(Cl)cc2c1=O`
Reply: 42.8 µM (inactive)

Ask: Look up GI50 for this compound: Cc1c(O)c(OC2OC(CO)C(O)C(O)C2O)cc2c1CC[C@@H]1C2(C)C(=O)C[C@]2(C)[C@@H]([C@@](C)(O)C(O)/C=C/C(C)(C)O)[C@H](O)C[C@@]12C (stereo not given in full)
Reply: > 100 µM (inactive)

Attribution: ChEMBL document CHEMBL1201862
